# System: RARg homodimer (NR concentration 270 nM)
# protocol-details: PBM binding z-score (relative to random genomic background probes); higher = stronger binding; sequences stand for … in GC…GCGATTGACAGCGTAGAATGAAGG
Definition: the class of an entry is the range in class A = under 1, class B = from 1 up to 3, class C = 3 and over that contains its PBM binding z-score.

Worked examples follow.
primary-sequence	label-class
CCTACTGGGCCCTTCAGAGGTCATTGATCATATG	class B
TAGCGTAGGTCATGGGCCAGTATACCACGCGAAC	class C
AGAATGAAGTTACCAAAGATCAGGGAAACGCTTG	class A
CCACCAAGGTGAACAAGGTCGTTGATTACTATTC	class B
TAGCCTAGGTCAGATCGGTCCAGTATACGCTATA	class C

Incoming: Returns: class label. Input: CGTCAAAGTGCAAGGTAACGTAACAGAAAGCAGC
Outgoing: class B

Incoming: Returns: class label. Input: CAAACTAGGTCAAGAGGCCAAAGTCCGCTTCCCG
Outgoing: class C

Incoming: Returns: class label. Input: CGTCCAAGGTAAGCAGGTCAGTGAAAGCGACGTG
Outgoing: class B

Incoming: Returns: class label. Input: TATACAGGGTCACAGGCCAGAGTACGAATGTCGA
Outgoing: class C
